Where these numbers come from: patent US20220348590A1

Collected COX2 2 minutes pge2/pge2d4 area ratio Avg. LLE values appear next to each entry.
Target: human recombinant COX2 (hCOX2) (UniProt P35354)
Sequence (P35354 1-604): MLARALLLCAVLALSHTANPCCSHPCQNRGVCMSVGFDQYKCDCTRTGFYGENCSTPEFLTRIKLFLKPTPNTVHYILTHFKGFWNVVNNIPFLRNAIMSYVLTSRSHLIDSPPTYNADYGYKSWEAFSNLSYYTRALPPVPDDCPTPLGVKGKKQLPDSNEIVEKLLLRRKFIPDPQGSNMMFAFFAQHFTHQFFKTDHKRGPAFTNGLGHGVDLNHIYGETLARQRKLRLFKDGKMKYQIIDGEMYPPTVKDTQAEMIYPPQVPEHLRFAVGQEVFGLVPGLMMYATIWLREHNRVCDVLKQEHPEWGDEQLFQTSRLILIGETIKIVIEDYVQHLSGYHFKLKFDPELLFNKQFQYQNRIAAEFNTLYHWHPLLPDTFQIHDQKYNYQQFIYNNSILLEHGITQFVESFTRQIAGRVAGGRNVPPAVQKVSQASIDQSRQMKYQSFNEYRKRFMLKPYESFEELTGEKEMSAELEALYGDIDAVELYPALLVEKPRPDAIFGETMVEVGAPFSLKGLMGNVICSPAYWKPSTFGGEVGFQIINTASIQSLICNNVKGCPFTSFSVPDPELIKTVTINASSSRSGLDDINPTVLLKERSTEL
Assay: LCMS-based COX2 enzymatic inhibition assay (PGE2 quantification)
Assay type: biochemical
Design: COX2 2 minutes pge2/pge2d4 area ratio Avg; other: 2 minutes; readout pge2/pge2d4 area ratio; average; COX2 2 minutes pge2/pge2d4 area ratio Avg; LLE; average LLE; COX2 2 minutes pge2 area (counts) Avg; readout pge2 area (counts); other: 2 min; "ovine COX2 (oCOX2), human recombinant COX2 (hCOX2)"
Conditions: 2 minutes; readout pge2/pge2d4 area ratio; average LLE

>  <Compound>
CS(=O)(=O)c1ccc(-c2cncc(NCc3nccs3)n2)cc1 [Compound 203]

>  <Test target>
human recombinant COX2 (hCOX2) (UniProt P35354)

>  <Reading>
4.216

$$$$
>  <Compound>
NS(=O)(=O)c1ccc(-c2cncc(NCc3cccs3)n2)cc1 [Compound 106]

>  <Test target>
human recombinant COX2 (hCOX2) (UniProt P35354)

>  <Reading>
5.5926

$$$$
>  <Compound>
CS(=O)(=O)c1ccc(-c2cccc(NCc3ncco3)n2)cc1 [Compound 231]

>  <Test target>
human recombinant COX2 (hCOX2) (UniProt P35354)

>  <Reading>
3.1763

$$$$
>  <Compound>
COc1ccc(NCc2cccs2)nc1-c1ccc(S(C)(=O)=O)cc1 [Compound 17]

>  <Test target>
human recombinant COX2 (hCOX2) (UniProt P35354)

>  <Reading>
4.653

$$$$
>  <Compound>
CS(=O)(=O)c1ccc(-c2cccc(NCc3cccs3)c2)cc1 [Compound 42]

>  <Test target>
human recombinant COX2 (hCOX2) (UniProt P35354)

>  <Reading>
3.551

$$$$
>  <Compound>
CS(=O)(=O)c1ccc(-c2cncc(SCc3ccccn3)n2)cc1 [Compound 131]

>  <Test target>
human recombinant COX2 (hCOX2) (UniProt P35354)

>  <Reading>
5.065

$$$$

Input: Item C[C@H](Oc1cccc(-c2ccc(S(C)(=O)=O)cc2)n1)c1cccs1 (single isomer, unassigned) [Compound 46] with human recombinant COX2 (hCOX2) (UniProt P35354) - COX2 2 minutes pge2/pge2d4 area ratio Avg. LLE?
Output: 3.462

Input: Given the entry CS(=O)(=O)c1ccc(-c2cnc(C(F)(F)F)c(NCc3cccs3)n2)cc1 [Compound 144] , what COX2 2 minutes pge2/pge2d4 area ratio Avg. LLE was observed with human recombinant COX2 (hCOX2) (UniProt P35354)?
Output: 3.605

Input: I'm curious: which COX2 2 minutes pge2/pge2d4 area ratio Avg. LLE was measured for CS(=O)(=O)c1ccc(-c2cncc(NCc3ccoc3)n2)cc1 [Compound 110] tested on human recombinant COX2 (hCOX2) (UniProt P35354)?
Output: 5.411

Input: COX2 2 minutes pge2/pge2d4 area ratio Avg. LLE of CS(=O)(=O)c1ccc(-c2cccc(/C=C\c3cccs3)n2)cc1 [Compound 41] on human recombinant COX2 (hCOX2) (UniProt P35354)?
Output: 3.735

Input: Item CS(=O)(=O)c1ccc(-c2cnc3ccn(Cc4ccco4)c3n2)cc1 [Compound 82] with human recombinant COX2 (hCOX2) (UniProt P35354) - COX2 2 minutes pge2/pge2d4 area ratio Avg. LLE?
Output: 4.353

Input: Find COX2 2 minutes pge2/pge2d4 area ratio Avg. LLE (human recombinant COX2 (hCOX2) (UniProt P35354)) for the entry COc1ncc(-c2ccc(S(C)(=O)=O)cc2)nc1NCc1cccs1 [Compound 116]
Output: 4.506

----------
Biological target: human recombinant COX2 (hCOX2)
Assay: LCMS-based COX2 enzymatic inhibition assay (PGE2 quantification)
Assay type: biochemical
Design: COX2 2 minutes pge2/pge2d4 area ratio Avg; other: 2 minutes; readout pge2/pge2d4 area ratio; average; COX2 2 minutes pge2/pge2d4 area ratio Avg; LLE; average LLE; COX2 2 minutes pge2 area (counts) Avg; readout pge2 area (counts); other: 2 min; "ovine COX2 (oCOX2), human recombinant COX2 (hCOX2)"
Settings: 2 minutes; readout pge2/pge2d4 area ratio; average LLE
Source text: We have adapted a previously reported cyclooxygenase enzymatic assay utilizing LCMS quantification of PGE2 as the product of COX-1 and COX2 catalyzed conversion of arachidonic acid to evaluate the binding properties of newly synthesized ligands [Cao, 2011]. […] Using these enzymatic assays, we have evaluated>200 newly synthesized ligands against COX2 and >20 ligands against COX-1. […]
Value type: COX2 2 minutes pge2/pge2d4 area ratio Avg. LLE
A bare number is all that is needed in reply.

Input: Fill in: COX2 2 minutes pge2/pge2d4 area ratio Avg. LLE of `COc1ncc(NCc2cocn2)nc1-c1ccc(S(C)(=O)=O)cc1` is ___
Output: 3.954

Input: # query: COX2 2 minutes pge2/pge2d4 area ratio Avg. LLE of entry CS(=O)(=O)c1ccc(-c2cncc(NC[C@@H]3CCCS3)n2)cc1 (single isomer, unassigned)
Output: 4.792

Input: So what's the measured COX2 2 minutes pge2/pge2d4 area ratio Avg. LLE for this one? `CS(=O)(=O)c1ccc(-c2cncc(OCc3nccs3)n2)cc1`
Output: 4.543

Input: Field request: COX2 2 minutes pge2/pge2d4 area ratio Avg. LLE | item: `CS(=O)(=O)c1ccc(-c2cnnc(NCc3cccs3)c2)cc1`
Output: 2.958

Input: # query: COX2 2 minutes pge2/pge2d4 area ratio Avg. LLE of entry `CS(=O)(=O)c1ccc(-c2cc(F)cc(OCc3cccs3)n2)cc1`
Output: 4.364

Input: Bench note: what COX2 2 minutes pge2/pge2d4 area ratio Avg. LLE did `Cc1cocc1CNc1cccc(-c2ccc(S(C)(=O)=O)cc2)n1` show?
Output: 4.502

Input: Consider the compound `CS(=O)(=O)c1ccc(-c2cncc(SCc3cnoc3)n2)cc1` and give its measured COX2 2 minutes pge2/pge2d4 area ratio Avg. LLE.
Output: 4.567

----------
biological target: human recombinant COX2 (hCOX2) (UniProt P35354); experiment: LCMS-based COX2 enzymatic inhibition assay (PGE2 quantification); assay type: biochemical; set-up: COX2 2 minutes pge2/pge2d4 area ratio Avg; other: 2 minutes; readout pge2/pge2d4 area ratio; average; COX2 2 minutes pge2/pge2d4 area ratio Avg; LLE; average LLE; COX2 2 minutes pge2 area (counts) Avg; readout pge2 area (counts); other: 2 min; "ovine COX2 (oCOX2), human recombinant COX2 (hCOX2)"; details: 2 minutes; readout pge2/pge2d4 area ratio; average LLE
Value type: COX2 2 minutes pge2/pge2d4 area ratio Avg. LLE
Form field (numeric): enter value without unit.

Consider the reported COX2 2 minutes pge2/pge2d4 area ratio Avg. LLE for these compounds:
>  <Compound>
CS(=O)(=O)c1ccc(-c2cccc(OCc3ccc(F)cc3)n2)cc1 [Compound 95]

>  <Reading>
3.43

$$$$
>  <Compound>
CS(=O)(=O)c1ccc(-c2cccc(NCc3ccno3)n2)cc1 [Compound 175]

>  <Reading>
4.7843

$$$$
>  <Compound>
CCOc1ncc(NCc2cccs2)nc1-c1ccc(S(C)(=O)=O)cc1 [Compound 25]

>  <Reading>
5.041

$$$$
>  <Compound>
COc1ncc(NCc2cncs2)nc1-c1ccc(S(C)(=O)=O)cc1 [Compound 163]

>  <Reading>
4.491

$$$$
>  <Compound>
C[C@H](Nc1cccc(-c2ccc(S(C)(=O)=O)cc2)n1)c1ccco1 (single isomer, unassigned) [Compound 89]

>  <Reading>
3.84

$$$$
>  <Compound>
COc1ncc(NCc2ccncc2)nc1-c1ccc(S(C)(=O)=O)cc1 [Compound 182]

>  <Reading>
5.042

$$$$

Input: Provide value of COX2 2 minutes pge2/pge2d4 area ratio Avg. LLE for this record tested with human recombinant COX2 (hCOX2) (UniProt P35354): CS(=O)(=O)c1ccc(-c2ccc3ncn(Cc4cccs4)c3n2)cc1 [Compound 155]
Output: 2.321

Input: Recall the recorded COX2 2 minutes pge2/pge2d4 area ratio Avg. LLE for CS(=O)(=O)c1ccc(-c2cccc(NCc3ccc(F)cc3)n2)cc1 [Compound 13] with human recombinant COX2 (hCOX2) (UniProt P35354) and state it.
Output: 4.5476

Input: Write down the reported COX2 2 minutes pge2/pge2d4 area ratio Avg. LLE of CS(=O)(=O)c1ccc(-c2cncc(NCc3cnco3)n2)cc1 [Compound 215] , test system: human recombinant COX2 (hCOX2) (UniProt P35354).
Output: 4.859

Input: Notebook entry, human recombinant COX2 (hCOX2) (UniProt P35354) assay: COX2 2 minutes pge2/pge2d4 area ratio Avg. LLE of CS(=O)(=O)c1ccc(-c2cnnc(OCc3ccco3)c2)cc1 [Compound 255] = ?
Output: 3.111

Input: Under human recombinant COX2 (hCOX2) (UniProt P35354): COX2 2 minutes pge2/pge2d4 area ratio Avg. LLE value of COc1ncc(OCc2ccco2)nc1-c1ccc(S(C)(=O)=O)cc1 [Compound 81] ?
Output: 5.231

Input: Give human recombinant COX2 (hCOX2) (UniProt P35354) COX2 2 minutes pge2/pge2d4 area ratio Avg. LLE for CS(=O)(=O)c1ccc(-c2cncc(SCc3ccon3)n2)cc1 [Compound 148]
Output: 5.484

Input: Give the reported COX2 2 minutes pge2/pge2d4 area ratio Avg. LLE for COCCOc1ncc(NCc2cccs2)nc1-c1ccc(S(C)(=O)=O)cc1 [Compound 133] (system: human recombinant COX2 (hCOX2) (UniProt P35354)).
Output: 4.558

Input: So what COX2 2 minutes pge2/pge2d4 area ratio Avg. LLE did CS(=O)(=O)c1ccc(-c2cnc(C(=O)O)c(NCc3cccs3)n2)cc1 [Compound 261] get with human recombinant COX2 (hCOX2) (UniProt P35354)?
Output: 4.063
